biological target: AMP-activated protein kinase, AMPK (Homo sapiens) (UniProt P54646+O43741+P54619+Q9UGJ0+Q9Y478+Q13131+Q9UGI9); test: AMP-dependent Kinase enzyme assay. An in vitro enzyme assay that detects ADP turnover that is directly proportional to AMPK activity. This uses naive AMPK that is activated during the assay with MK-8722; assay type: functional; design: scale not given: direction of the effect not stated beside the values; settings: 30 µM
READOUT LABEL: Percent Effect (%)
Write down the numeric answer in % and omit the unit.

Sample records with Percent Effect:
COMPOUND: Cc1ccc(C(C)NC(=O)Cc2c(C)nc3c(c2C)c(=O)[nH]n3C)o1 (stereo not drawn)
RECORDED RESULT: 1.79
--
COMPOUND: Cc1nc(CN(C)C2CCN(Cc3sc(C)nc3C)C2)no1 (stereo not drawn)
RECORDED RESULT: -14.6
--
COMPOUND: O=C(CC1CCCC1)N1CCCC1c1nc(O)cc(-c2ccccn2)n1 (stereo not drawn)
RECORDED RESULT: 1.3

query: I am curious: what Percent Effect value has been reported for `CCOC(=O)CCC(=O)N1CCC(Oc2ccc(C(F)(F)F)cn2)CC1` ?
result: 4.3

query: I am curious: what Percent Effect value has been reported for `CN(C)C(=O)c1cccc(NC(=O)N(CCO)Cc2ccsc2)c1` ?
result: -9.76

query: I am curious: what Percent Effect value has been reported for `COc1ccc2c(c1)C1(CCN(Cc3ccncc3)CC1)N(C)CC2` ?
result: 2.38

query: I am curious: what Percent Effect value has been reported for CC(O)CN1CCC(CNCc2cccc(Br)c2)CC1 (stereo not drawn) ?
result: -21.1

query: I am curious: what Percent Effect value has been reported for Cc1nc(CN2CCCC(N(C)Cc3c(C)noc3C)C2)no1 (stereo not drawn) ?
result: -0.475

query: I am curious: what Percent Effect value has been reported for `O=C1N(c2ccc(F)cc2)Cc2nc(=O)n(Cc3cccc(Cl)c3)n21` ?
result: 8.75

query: I am curious: what Percent Effect value has been reported for `Cn1nc(C(=O)NCc2ccccn2)c2c1CCS(=O)(=O)C2` ?
result: 15

query: I am curious: what Percent Effect value has been reported for `O=C(CN1CCC(C(=O)c2cc(F)ccc2F)CC1)NC1CCCC1` ?
result: 13.8

query: I am curious: what Percent Effect value has been reported for `O=C(NCc1ccccn1)c1nnn(-c2ccc(Br)cc2)n1` ?
result: -2.49

query: I am curious: what Percent Effect value has been reported for CC(C)N1CC(C(=O)NCCc2csc(-c3ccncc3)n2)CC1=O (stereo not drawn) ?
result: 5.98

query: I am curious: what Percent Effect value has been reported for CSc1ccc(C(CNC(=O)C2CC2)N2CCc3sccc3C2)cc1 (stereo not drawn) ?
result: 1.69

query: I am curious: what Percent Effect value has been reported for `CN1C(=O)C[C@@H]2[C@@H]1CCN2S(=O)(=O)Cc1ccccc1` ?
result: 4.04

* * *

Entries and their Percent Effect values follow.
Target: Ubiquitin-activating enzyme e1, putative (Leishmania donovani (strain BPK282A1)) (UniProt E9BSI1)
Sequence (whole entry): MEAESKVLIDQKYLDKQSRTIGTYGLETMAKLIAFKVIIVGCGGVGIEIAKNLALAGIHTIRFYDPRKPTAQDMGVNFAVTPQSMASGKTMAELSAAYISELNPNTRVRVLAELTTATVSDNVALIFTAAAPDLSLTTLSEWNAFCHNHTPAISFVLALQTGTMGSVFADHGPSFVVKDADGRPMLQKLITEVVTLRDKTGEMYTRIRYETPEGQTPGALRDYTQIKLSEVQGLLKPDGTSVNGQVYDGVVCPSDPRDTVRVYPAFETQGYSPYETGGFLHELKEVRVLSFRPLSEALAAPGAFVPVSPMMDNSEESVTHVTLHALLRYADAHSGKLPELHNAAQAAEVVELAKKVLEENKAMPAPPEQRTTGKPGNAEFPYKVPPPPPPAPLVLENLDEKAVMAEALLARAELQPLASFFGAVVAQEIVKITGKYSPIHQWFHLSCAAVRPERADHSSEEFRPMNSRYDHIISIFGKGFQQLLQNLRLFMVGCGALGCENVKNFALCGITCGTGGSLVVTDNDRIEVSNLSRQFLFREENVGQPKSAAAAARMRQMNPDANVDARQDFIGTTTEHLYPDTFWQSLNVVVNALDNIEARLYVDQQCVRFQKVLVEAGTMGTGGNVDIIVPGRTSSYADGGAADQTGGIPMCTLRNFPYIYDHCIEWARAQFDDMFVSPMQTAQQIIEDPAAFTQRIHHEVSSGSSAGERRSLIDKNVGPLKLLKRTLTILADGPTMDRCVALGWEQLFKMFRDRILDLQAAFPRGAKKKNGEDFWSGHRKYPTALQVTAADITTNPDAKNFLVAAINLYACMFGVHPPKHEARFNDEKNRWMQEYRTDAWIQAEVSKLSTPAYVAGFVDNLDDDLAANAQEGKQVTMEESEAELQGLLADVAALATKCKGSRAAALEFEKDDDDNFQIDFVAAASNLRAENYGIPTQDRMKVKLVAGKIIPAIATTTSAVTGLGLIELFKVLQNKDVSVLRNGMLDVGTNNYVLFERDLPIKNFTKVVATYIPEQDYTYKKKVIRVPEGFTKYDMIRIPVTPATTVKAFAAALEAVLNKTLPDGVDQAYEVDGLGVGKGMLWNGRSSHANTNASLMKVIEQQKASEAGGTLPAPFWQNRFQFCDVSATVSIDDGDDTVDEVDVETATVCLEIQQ
Test: Leishmania donovani Ubiquitin Activating Enzyme (LdE1)
Format: functional
Set-up: scale not given: direction of the effect not stated beside the values
Details: 30 µM
Potency and affinity values are given separately.
Write down the numeric answer in % and omit the unit.

Sample records with Percent Effect:
COMPOUND: COCC1CC2(CCN(C(=O)c3cccn3C)CC2)CN1C(C)C (stereo unspecified)
Percent Effect [%]: -13.5

COMPOUND: CC(C)CC(=O)N1CCN(C(=O)N(C)C)CC2(CC(=O)N(C)C2)C1 (stereo unspecified)
Percent Effect [%]: -27

COMPOUND: Cc1cc(C)n(CC2CN(CCOc3cccc(C#N)c3)CCO2)n1 (stereo unspecified)
Percent Effect [%]: 13.2

COMPOUND: O=C(c1cccnc1)N1C[C@@H]2CC[C@H](C1)N(Cc1cccc(Cl)c1F)C2
Percent Effect [%]: 8.22

COMPOUND: Cc1cc(CN2CCC(CNC(=O)c3ccc(O)c(Cl)c3)C2)[nH]n1 (stereo unspecified)
Percent Effect [%]: 2.7

COMPOUND: CSCCC(=O)N1CCC(Oc2cc(C)ccc2F)(C(=O)O)CC1
Percent Effect [%]: -1.39

query: I am curious: what Percent Effect value has been reported for CC(NC(=O)NCCCn1cccn1)c1cccnc1 (stereo unspecified) ?
result: -2.67

query: I am curious: what Percent Effect value has been reported for Cc1ccc(C2CCCCCN2Cc2cn(C)nc2C)cc1 (stereo unspecified) ?
result: 5.2

query: I am curious: what Percent Effect value has been reported for `CC(=O)N1CCN([C@@H]2CC[C@@H](NC(=O)c3cncc(C)c3)[C@H]2O)CC1` ?
result: -4.05

query: I am curious: what Percent Effect value has been reported for `COc1ccc(NC(=O)CNc2cccc3c2CCCC3)c(OC)c1` ?
result: -2.7

query: I am curious: what Percent Effect value has been reported for `Cc1ccc(CN2CCc3ncc(CNS(C)(=O)=O)n3CC2)o1` ?
result: 8.22

query: I am curious: what Percent Effect value has been reported for `CSc1ncccc1C(=O)N1CCC(c2nc3c(C)cccc3[nH]2)CC1` ?
result: 20.8

query: I am curious: what Percent Effect value has been reported for Cc1n[nH]cc1C(=O)N1CCCC(n2nnc3cc(F)ccc32)C1 (stereo unspecified) ?
result: 5.33

query: I am curious: what Percent Effect value has been reported for Cc1n[nH]c(C2CN(C(=O)c3ccco3)CCO2)n1 (stereo unspecified) ?
result: 2.63

query: I am curious: what Percent Effect value has been reported for `CNC(=O)[C@@]12CCC3(CCN(S(C)(=O)=O)CC3)[C@@H]1CN(S(C)(=O)=O)C2` ?
result: 13.5

query: I am curious: what Percent Effect value has been reported for CCOc1nnc(CN2CCOC(CNc3cccnn3)C2)s1 (stereo unspecified) ?
result: 20.8

query: I am curious: what Percent Effect value has been reported for `CN(C)C(=O)[C@H]1C[C@@H]2CCN(C3CCOCC3)C[C@H]2O1` ?
result: 2.67

query: I am curious: what Percent Effect value has been reported for `Cc1cc(C(F)(F)F)c2c(C3CCN(S(=O)(=O)N(C)C)CC3)noc2n1` ?
result: 12.2

query: I am curious: what Percent Effect value has been reported for `COc1c(C(=O)NCc2cccnc2)nnn1Cc1ccc(C)cc1` ?
result: 1.33

query: I am curious: what Percent Effect value has been reported for `Cc1nc(N2CCCC2)nc2c1CCN(C(=O)C1CCCC1)CC2` ?
result: 4

query: I am curious: what Percent Effect value has been reported for `CN1CCN(C2CCN(CCOc3ccc(F)cc3)CC2)C1=O` ?
result: 2.6

query: I am curious: what Percent Effect value has been reported for CC(C)Oc1ccccc1C1CC(=O)Nc2c1cnn2C (stereo unspecified) ?
result: -15.8

query: I am curious: what Percent Effect value has been reported for Cc1nc(C)n(C2CCCN(C(=O)c3cnc[nH]3)C2)n1 (stereo unspecified) ?
result: -2.7

query: I am curious: what Percent Effect value has been reported for `Cc1noc([C@H]2C[C@H]3OCC[C@H]3N(S(=O)(=O)C3CC3)C2)n1` ?
result: 11
